Each recorded value in this set is attributed to patent US20260209316A1.

Below: a set of entries, each annotated with reported % inhibition of binding.
Assay system: T1, mucin domain-deleted Sudan GP (GPdMuc) (Sudan virus (SUDV), UniProt Q7T9D9 33-632)
T1 construct: also called Sudan GPdMuc; GP(S)dMuc
Measurement description: BLI competition on Sudan GPdMuc (lower table); competitor mAb166
Measured quantity: % inhibition of binding (%)

[[record]]
binder = "antibody 405S (antibody, V domains shown) VH: EVQLVESGGGLIQPGGSLRLSCAASGFTVSSHYMSWVRQAPGKGLEWVSGIYSGGRTHYADSVKGRFTISRDNSKNTLYLQMNSLRADDTAVYSCARGTLLYLYGMDVWGQGTTVTVSS VL: QSVLTQPPSVSAAPGQRVTISCTGSSSNIGAGYNVHWYQQLPGAAPKLLIYGNTNRPSGVPDRFSGSKSGTSASLAITGLQAEDEADYYCQSFDSSLSGVFGTGTKVTVL"
value_unit = "%"
measured_value = 84.1

[[record]]
binder = "antibody 578S (antibody, V domains shown) VH: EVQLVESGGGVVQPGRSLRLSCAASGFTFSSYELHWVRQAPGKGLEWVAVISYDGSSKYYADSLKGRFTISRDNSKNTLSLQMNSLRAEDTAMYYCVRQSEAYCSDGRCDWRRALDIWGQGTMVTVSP VL: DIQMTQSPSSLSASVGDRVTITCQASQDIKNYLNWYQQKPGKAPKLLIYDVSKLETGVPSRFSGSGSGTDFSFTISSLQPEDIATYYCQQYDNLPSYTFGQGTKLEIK"
value_unit = "%"
measured_value = 86.6

[[record]]
binder = "antibody 285S (antibody, V domains shown) VH: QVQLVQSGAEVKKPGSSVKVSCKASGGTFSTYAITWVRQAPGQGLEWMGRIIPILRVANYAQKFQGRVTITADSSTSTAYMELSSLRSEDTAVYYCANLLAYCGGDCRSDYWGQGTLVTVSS VL: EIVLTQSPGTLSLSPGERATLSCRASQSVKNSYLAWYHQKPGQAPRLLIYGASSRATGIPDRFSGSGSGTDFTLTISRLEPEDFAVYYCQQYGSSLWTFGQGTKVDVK"
value_unit = "%"
measured_value = 64.6

[[record]]
binder = "antibody 382S (antibody, V domains shown) VH: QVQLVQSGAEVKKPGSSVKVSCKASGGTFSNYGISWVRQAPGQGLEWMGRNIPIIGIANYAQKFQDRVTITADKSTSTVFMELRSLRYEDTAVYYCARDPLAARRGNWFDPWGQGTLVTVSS VL: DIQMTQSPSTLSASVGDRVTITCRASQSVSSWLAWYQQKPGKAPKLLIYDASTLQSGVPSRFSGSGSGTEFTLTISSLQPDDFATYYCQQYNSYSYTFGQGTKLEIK"
value_unit = "%"
measured_value = 84.9

